Biological target: 14-3-3γ/SLP76 (Homo sapiens, UniProt P61981+Q13094)
Sequence (Q13094 356-533): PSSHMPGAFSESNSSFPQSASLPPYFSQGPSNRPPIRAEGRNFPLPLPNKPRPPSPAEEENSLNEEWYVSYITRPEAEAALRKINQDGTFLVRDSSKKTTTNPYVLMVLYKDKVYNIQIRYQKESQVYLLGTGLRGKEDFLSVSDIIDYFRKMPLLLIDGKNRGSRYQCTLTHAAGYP
Sequence (P61981 whole entry): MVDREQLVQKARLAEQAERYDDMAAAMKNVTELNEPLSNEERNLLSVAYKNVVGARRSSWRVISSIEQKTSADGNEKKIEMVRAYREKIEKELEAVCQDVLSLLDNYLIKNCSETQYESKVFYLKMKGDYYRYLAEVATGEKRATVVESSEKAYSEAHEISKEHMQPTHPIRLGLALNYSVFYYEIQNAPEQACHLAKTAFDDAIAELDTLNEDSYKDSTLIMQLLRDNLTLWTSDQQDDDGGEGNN
Assay: Orthogonal SPR assay, compound flowed with SLP76 over immobilised 14-3-3γ
Type: binding
Settings: percentage of SLP76 remained on the chip after the dissociation phase (+240 s)
Param label: returns Condition met when SPR RU (%) mass increase 14-3-3γ/SLP76 < 60%, returns Condition not met otherwise, including exact equality.

> print(dat)
                           substance.smiles        group.label
1   O=C1OC[C@@H]2CCN(Cc3ccccc3)Cc3ccccc3N12  Condition not met
2     CC(C)N1CC[C@H]2COC(=O)N2c2cc(F)ccc2C1  Condition not met
3  COc1ccc(C(=O)N2C[C@@H]3CN(CCO3)C(=O)[C@@H]3C[C@@H](CN3Cc3ccc4c(c3)OCO4)NC(=O)C[C@@H]3O[C@H](C2)[C@@H](O)[C@H]3O)cc1      Condition met
4  CC(C)CNC(=O)c1ccc2c(c1)nc1n2CCN(C(C)C)C1=O  Condition not met
5                   c1cc(-c2nnc3scnn23)ccn1      Condition met

Field: next compound
## Input Please let me know if COc1ccc(C(=O)N2C[C@@H]3CN(CCO3)C(=O)[C@@H]3C[C@@H](CN3Cc3cccnc3)NC(=O)C[C@@H]3O[C@H](C2)[C@@H](O)[C@H]3O)cc1 shows SPR RU (%) mass increase 14-3-3γ/SLP76 below 60%.
## Output Condition not met
